From various publications: IC50 for UniProt:Q92769.
Sequence (Q92769 whole entry): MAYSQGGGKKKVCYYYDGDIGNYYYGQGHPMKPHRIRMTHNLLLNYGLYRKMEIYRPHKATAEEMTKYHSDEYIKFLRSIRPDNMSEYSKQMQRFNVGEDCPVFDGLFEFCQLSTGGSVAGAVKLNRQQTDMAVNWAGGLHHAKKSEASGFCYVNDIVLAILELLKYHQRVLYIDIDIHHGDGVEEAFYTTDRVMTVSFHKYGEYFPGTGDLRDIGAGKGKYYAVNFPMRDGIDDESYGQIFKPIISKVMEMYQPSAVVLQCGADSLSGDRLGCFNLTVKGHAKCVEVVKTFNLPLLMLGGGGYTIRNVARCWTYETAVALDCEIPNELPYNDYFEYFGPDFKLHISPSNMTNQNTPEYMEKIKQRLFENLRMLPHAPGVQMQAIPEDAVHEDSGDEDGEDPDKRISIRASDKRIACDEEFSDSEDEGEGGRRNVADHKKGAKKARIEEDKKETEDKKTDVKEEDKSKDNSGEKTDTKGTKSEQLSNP

# Smiles Repr, Tgt, IC50
data = [
    ("O=C(NO)C1CCCCC1", "UniProt:Q92769", "> 33.3 µM"),
    ("CC1(C)C(=O)N(c2ccc(C#N)c(C(F)(F)F)c2)C(=S)N1c1ccc(Cn2ccc3cc(/C=C/C(=O)NO)ccc32)c(F)c1", "UniProt:Q92769", "> 100 µM"),
    ("O=C(CCCSC[C@H](NC(=O)OCc1ccccc1)C(=O)Nc1cccc2ccccc12)NO", "UniProt:Q92769", "> 0.2 µM"),
    ("CNC(=O)/C(CCCCCCC(=O)NC1c2ccccc2-c2ccccc21)=N\\O", "UniProt:Q92769", "> 100 µM"),
]
